Could you please report measured GI50 of drug for the items listed next?
Tested on: UO-31
TEST NAME: GI50 of drug in presence of dasatinib; higher = less potent
COND: treatment: drug + dasatinib (fixed dose, not stated); 5 days
One number for each entry, in nM.

Worked examples, 3 molecules total:
MOLECULE	TARGET OF ASSAY	UNITS	REPORTED VALUE
O=C(NCc1ccccc1)c1csc(Nc2ccncn2)n1 [Thiazovivin] + Cc1nc(Nc2ncc(C(=O)Nc3c(C)cccc3Cl)s2)cc(N2CCN(CCO)CC2)n1 [dasatinib]	UO-31	nM	1650
Cc1ccc([N+](=O)[O-])cc1S(=O)(=O)N(C)/N=C/c1cnc2ccc(Br)cn12.Cl [PIK-75] + Cc1nc(Nc2ncc(C(=O)Nc3c(C)cccc3Cl)s2)cc(N2CCN(CCO)CC2)n1 [dasatinib]	UO-31	nM	43
Cc1cc(Nc2cc(CN3CCOCC3)c3nc(C)c(Cc4ccc(Cl)cc4F)n3n2)[nH]n1 + Cc1nc(Nc2ncc(C(=O)Nc3c(C)cccc3Cl)s2)cc(N2CCN(CCO)CC2)n1 [dasatinib]	UO-31	nM	2610

For each of the items listed, what is its GI50 of drug?
1. C=CC(=O)Nc1cc2c(Nc3ccc(F)c(Cl)c3)ncnc2cc1OCCCN1CCOCC1 [CI-1033 (Canertinib)] + Cc1nc(Nc2ncc(C(=O)Nc3c(C)cccc3Cl)s2)cc(N2CCN(CCO)CC2)n1 [dasatinib]
2. Cc1ncc(-c2ccnc(Nc3ccc(S(C)(=O)=O)cc3)n2)n1C(C)C [AZD5438] + Cc1nc(Nc2ncc(C(=O)Nc3c(C)cccc3Cl)s2)cc(N2CCN(CCO)CC2)n1 [dasatinib]

Output:
[1330, 367]
